# system_under_test: Toll-like receptor 4 (Homo sapiens)
# Sequence (O00206 whole entry): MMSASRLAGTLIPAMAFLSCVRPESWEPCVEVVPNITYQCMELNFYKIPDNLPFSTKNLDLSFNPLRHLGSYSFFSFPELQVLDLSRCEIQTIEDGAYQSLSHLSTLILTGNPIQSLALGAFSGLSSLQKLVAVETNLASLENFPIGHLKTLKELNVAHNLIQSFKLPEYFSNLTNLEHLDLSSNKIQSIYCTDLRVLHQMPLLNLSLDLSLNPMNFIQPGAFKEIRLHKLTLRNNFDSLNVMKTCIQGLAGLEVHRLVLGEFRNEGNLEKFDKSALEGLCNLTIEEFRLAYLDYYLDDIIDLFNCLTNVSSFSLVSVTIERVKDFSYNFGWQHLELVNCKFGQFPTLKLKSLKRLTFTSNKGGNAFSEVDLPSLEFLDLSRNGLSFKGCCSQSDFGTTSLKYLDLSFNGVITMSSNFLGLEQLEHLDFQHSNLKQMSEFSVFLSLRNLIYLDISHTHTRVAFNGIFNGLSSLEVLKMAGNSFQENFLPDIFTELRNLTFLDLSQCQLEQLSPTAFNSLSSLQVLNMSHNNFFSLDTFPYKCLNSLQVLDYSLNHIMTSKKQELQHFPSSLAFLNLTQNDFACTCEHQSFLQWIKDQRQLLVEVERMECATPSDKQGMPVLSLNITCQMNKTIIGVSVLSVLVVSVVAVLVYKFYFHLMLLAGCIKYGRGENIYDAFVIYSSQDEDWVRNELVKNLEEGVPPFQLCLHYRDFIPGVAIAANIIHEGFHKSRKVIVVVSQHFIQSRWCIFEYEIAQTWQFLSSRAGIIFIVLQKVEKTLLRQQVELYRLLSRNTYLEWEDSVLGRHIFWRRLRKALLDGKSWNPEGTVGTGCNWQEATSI
# assay_method_text: Binding affinity to recombinant human TLR4 assessed as dissociation constant up to 200 uM by surface plasmon resonance analysis
readout: pKd
Please note pKd is a logarithmic value: minus log10 of concentration in mol/L. Answer with that number alone.

Dear colleague, please send me the reported pKd for "H-LGVFSSWWIKLV-OH" when you can.
8.96
